- Tested on: endosomes of Jurkat lymphocytes
- Assay Info: Endosome disruption in Jurkat lymphocytes: release of carboxyfluorescein from disulfide probe Compound 2, flow cytometry
- Test Settings: read-out: Potency; Table 2; EC50 ± standard deviation; Jurkat lymphocytes, disulfide-linked fluorescent probe (2.5 μM), 14 h
Non-standard residues stand in square brackets, D forms with d. Residues, ends and D or L forms follow the SMILES beside them. Aib = CC(C)(N)C(=O)O
Measured Quantity: pEC50
In simple prose, pEC50 is minus the logarithm base ten of a concentration in moles per litre.

Using the record for CC(=O)NC(C)(C)C(=O)NC(C)(C)C(=O)NC(C)(C)C(=O)NC(C)(C)C(=O)N[C@@H](Cc1c[nH]c2ccccc12)C(=O)N[C@@H](Cc1ccc(O)cc1)C(=O)N[C@@H](C)C(=O)N[C@@H](Cc1c[nH]c2ccccc12)C(=O)N[C@@H](Cc1ccc(O)cc1)C(=O)N[C@@H](C)C(=O)N[C@@H](Cc1c[nH]c2ccccc12)C(=O)N[C@@H](Cc1ccc(O)cc1)C(=O)N1CCC[C@H]1C(=O)N1CCC[C@H]1C(=O)N[C@H](C(=O)N[C@H](C(N)=O)C(C)C)C(C)C [Compound 82] (Ac-[Aib][Aib][Aib][Aib]WYAWYAWYPPVV-NH2) , report its pEC50. 6.10

---

For each record, write down the corresponding EC50.
- Test system: endosomes of Jurkat lymphocytes
- Assay Info: Endosome disruption in Jurkat lymphocytes: release of carboxyfluorescein from disulfide probe Compound 2, flow cytometry
- Test Settings: read-out: Potency; Table 2; EC50 ± standard deviation; Jurkat lymphocytes, disulfide-linked fluorescent probe (2.5 μM), 14 h
Non-standard residues stand in square brackets, D forms with d. Residues, ends and D or L forms follow the SMILES beside them. Aib = CC(C)(N)C(=O)O
Field format: number, assumed µM, no unit text.

endosomes of Jurkat lymphocytes / EC50 / CC(C)[C@H](NC(=O)[C@@H]1CCCN1C(=O)[C@@H]1CCCN1C(=O)[C@H](Cc1c[nH]c2ccccc12)NC(=O)[C@H](Cc1ccc(O)cc1)NC(=O)[C@H](C)NC(=O)[C@H](Cc1c[nH]c2ccccc12)NC(=O)[C@H](Cc1c[nH]c2ccccc12)NC(=O)C(C)(C)NC(=O)C(C)(C)NC(=O)C(C)(C)NC(=O)C(C)(C)N)C(=O)N[C@@H](C)C(N)=O [Compound 43] (H-[Aib][Aib][Aib][Aib]WWAYWPPVA-NH2) : value? 9

Another compound to look at: CC(C)[C@H](NC(=O)[C@@H](NC(=O)[C@@H]1CCCN1C(=O)[C@@H]1CCCN1C(=O)[C@H](Cc1c[nH]c2ccccc12)NC(=O)[C@H](Cc1c[nH]c2ccccc12)NC(=O)[C@H](C)NC(=O)[C@H](Cc1c[nH]c2ccccc12)NC(=O)[C@H](Cc1ccc(O)cc1)NC(=O)C(C)(C)NC(=O)C(C)(C)NC(=O)C(C)(C)NC(=O)C(C)(C)N)C(C)C)C(N)=O [Compound 52] (H-[Aib][Aib][Aib][Aib]YWAWWPPVV-NH2) 3.2

Consider next the compound CC(C)[C@H](NC(=O)[C@@H](NC(=O)[C@H](C)NC(=O)[C@@H]1CCCN1C(=O)[C@H](Cc1c[nH]c2ccccc12)NC(=O)[C@H](Cc1ccc(O)cc1)NC(=O)[C@H](C)NC(=O)[C@H](Cc1c[nH]c2ccccc12)NC(=O)[C@H](Cc1c[nH]c2ccccc12)NC(=O)C(C)(C)NC(=O)C(C)(C)NC(=O)C(C)(C)NC(=O)C(C)(C)N)C(C)C)C(N)=O [Compound 50] (H-[Aib][Aib][Aib][Aib]WWAYWPAVV-NH2) in the same way. 9

Recorded values, source patent US10766928B2.
